Each entry below carries its recorded POTASSIUM.
Species on record: Rattus norvegicus
Assay: DrugMatrix - Regimen: Daily Repeat
Format: toxicity, organism-based, Sprague-Dawley
Set-up: regimen Daily Repeat, gender Male, age 6-8 weeks
Settings: in vivo, po, 0 mg/kg, 72 h, tissue Plasma, route oral GAVAGE, dose level Control, time 3 day, vehicle 100 % WATER
Only the number, expressed in MEQ/L, is required.

Sample records with POTASSIUM:
molecule="CCN(CC)CC#CCOC(=O)C(O)(c1ccccc1)C1CCCCC1 (configuration not stated)" reported=6.55
molecule=O=C(O)c1cccnc1 reported=6.8

For the next question, use this molecule.
Please report POTASSIUM for the following molecule: CC[C@H]1OC(=O)[C@H](C)[C@@H](O[C@H]2C[C@@](C)(OC)[C@@H](O)[C@H](C)O2)[C@H](C)[C@@H](O[C@@H]2O[C@H](C)C[C@H](N(C)C)[C@H]2O)[C@](C)(OC)C[C@@H](C)C(=O)[C@H](C)[C@@H](O)[C@]1(C)O 6.06

---

Species: Rattus norvegicus
Test: DrugMatrix - Regimen: Daily Repeat
Assay type: toxicity, organism-based, Sprague-Dawley
Set-up: regimen Daily Repeat, gender Male, age 6-8 weeks
Details: in vivo, po, 0 mg/kg, 120 h, tissue Blood, route oral GAVAGE, dose level Control, time 5 day, […]
result-type: ABSOLUTE MONOCYTE (CELLS/uL)
Only the number, expressed in CELLS/uL, is required.

Sample records with ABSOLUTE MONOCYTE:
molecule=CC(C)Cc1ccc(CC(=O)O)cc1 result_type="ABSOLUTE MONOCYTE" units_of_measure=CELLS/uL reported=475.67
molecule="CC(=O)Nc1nnc(S(N)(=O)=O)s1 [ACETAZOLAMIDE]" result_type="ABSOLUTE MONOCYTE" units_of_measure=CELLS/uL reported=341.33
molecule=NC[C@@H]1O[C@H](O[C@H]2[C@@H](O)[C@H](O[C@@H]3[C@@H](O)[C@H](N)C[C@H](N)[C@H]3O[C@H]3O[C@H](CN)[C@@H](O)[C@H](O)[C@H]3N)O[C@@H]2CO)[C@H](N)[C@@H](O)[C@@H]1O result_type="ABSOLUTE MONOCYTE" units_of_measure=CELLS/uL reported=72.5
molecule="CN(CCOc1ccc(CC2SC(=O)NC2=O)cc1)c1ccccn1 (stereo not given)" result_type="ABSOLUTE MONOCYTE" units_of_measure=CELLS/uL reported=82.83

Please report ABSOLUTE MONOCYTE for the following molecule: CCn1cc(C(=O)O)c(=O)c2cc(F)c(N3CCNCC3)nc21 376.5

Please report ABSOLUTE MONOCYTE for the following molecule: OCCN1CCN(CCCN2c3ccccc3Sc3ccc(C(F)(F)F)cc32)CC1 90.5

Please report ABSOLUTE MONOCYTE for the following molecule: CC[C@H](C)C(=O)O[C@H]1C[C@@H](C)C=C2C=C[C@H](C)[C@H](CC[C@@H]3C[C@@H](O)CC(=O)O3)[C@H]21 98.67

Please report ABSOLUTE MONOCYTE for the following molecule: C#C[C@]1(O)CC[C@H]2[C@@H]3CCc4cc(O)ccc4[C@H]3CC[C@@]21C 376.5

Please report ABSOLUTE MONOCYTE for the following molecule: COc1ncnc(NS(=O)(=O)c2ccc(N)cc2)c1OC 341.33
